- System: Salmonella typhimurium
- EXPERIMENT_NOTES: Antimicrobial activity against Salmonella Typhimurium ATCC 14028 assessed as inhibition of biofilm formation after 48 hrs using crystal violet staining by microtiter plate assay
- Type: functional, organism-based, Salmonella enterica subsp. enterica serovar Typhimurium
- CONDITION_INFO: Salmonella enterica, ATCC 14028, 48 h
IC50 overview
Numeric only. Scale: µM

CCCCCC(Br)C1=C(Br)/C(=C/Br)OC1=O (stereo not drawn): 3.23
CCC1=CC(=C(Br)Br)OC1=O: 200

Asked: Request body: readout IC50, system Salmonella typhimurium, query CCCC(OC(C)=O)C1=C(Br)/C(=C/Br)OC1=O (stereo not drawn) . Return the value.
Given back: 132

Asked: Please do the same for CC(Br)C1=CC(=C(Br)Br)OC1=O (stereo not drawn) as well.
Given back: 1.17

====

- Tested on: Salmonella typhimurium
- EXPERIMENT_NOTES: Antimicrobial activity against Salmonella Typhimurium ATCC 14028 assessed as effect on planktonic growth at 250 uM after 36 hrs by microtiter plate assay
- Assay type: functional, organism-based
- CONDITION_INFO: Salmonella enterica subsp. enterica serovar Typhimurium
The source made the active and inactive calls. No cut-off for these calls is given here.
Pick from TRUE for active, FALSE for inactive when you respond.

CCCC(OC(C)=O)C1=C(Br)/C(=C/Br)OC1=O (stereo unspecified): FALSE

Asked: Returns: the outcome recorded for `CCC1=C(Br)/C(=C/Br)OC1=O` in this assay.
Given back: TRUE

Asked: Please do the same for CC(Br)C1=C(Br)/C(=C/Br)OC1=O (stereo unspecified) as well.
Given back: TRUE

====

- Test system: Salmonella typhimurium
- EXPERIMENT_NOTES: Antimicrobial activity against Salmonella Typhimurium ATCC 14028 assessed as inhibition of biofilm formation after 48 hrs using crystal violet staining by microtiter plate assay
- Type: functional, organism-based, Salmonella enterica subsp. enterica serovar Typhimurium
- CONDITION_INFO: Salmonella enterica, ATCC 14028, 48 h
IC50 overview
Numeric only. Scale: µM

Solved entries:
CCCCCCC1=C(Br)C(=O)OC1=O [BROMOHEXYLMALEIC ANHYDRIDE]: 65.9
CC(=O)OC(C)C1=C(Br)C(=C(Br)Br)OC1=O (centres undefined): 7.29

Continue with the compound presented below.
Asked: Request body: readout IC50, system Salmonella typhimurium, query `CCCCCCC1=CC(=C(Br)Br)OC1=O` . Return the value.
Given back: 160

====

- Test system: Salmonella typhimurium
- EXPERIMENT_NOTES: Antimicrobial activity against Salmonella Typhimurium ATCC 14028 assessed as effect on planktonic growth at 250 uM after 36 hrs by microtiter plate assay
- Assay type: functional, organism-based
- CONDITION_INFO: Salmonella enterica subsp. enterica serovar Typhimurium
The source made the active and inactive calls. No cut-off for these calls is given here.
Pick from active, inactive when you respond.

Asked: Returns: the outcome recorded for CCCC(Br)C1=C(Br)/C(=C/Br)OC1=O (stereo not drawn) in this assay.
Given back: active

Asked: Please do the same for `CCC1=CC(=C(Br)Br)OC1=O` as well.
Given back: inactive

Asked: Please do the same for CCCCCC(Br)C1=C(Br)/C(=C/Br)OC1=O (stereo not drawn) as well.
Given back: inactive

Values from ChEMBL document CHEMBL1250426
